These records show log10 AC50 for Muscarinic acetylcholine receptor M2 (Homo sapiens).
Scale: decimal log of AC50, AC50 in µM.

{"molecule": "CCOC(=O)c1ccc(OC(=O)CCCCCNC(=N)N)cc1 [GABEXATE]", "target-entity": "Muscarinic acetylcholine receptor M2 (Homo sapiens)", "log10 AC50": 0.17}

Return value of log10 AC50 for input C#Cc1cccc(Nc2ncnc3cc(OCCOC)c(OCCOC)cc23)c1 [ERLOTINIB] , no commentary.
1.12

Return value of log10 AC50 for input COC(=O)C1=C(C)NC(C)=C(C(=O)O[C@H]2CCN(Cc3ccccc3)C2)[C@H]1c1cccc([N+](=O)[O-])c1 [BARNIDIPINE] , no commentary.
0.37

Return value of log10 AC50 for input CN(C)CCC(c1ccccc1)c1ccccn1 (stereo not given) [PHENIRAMINE] , no commentary.
1.39

Return value of log10 AC50 for input CN1CCN(CCCN2c3ccccc3Sc3ccc(S(=O)(=O)N(C)C)cc32)CC1 [THIOPROPERAZINE] , no commentary.
0.42

Return value of log10 AC50 for input O=C1[C@H]2CCCC[C@H]2C(=O)N1CCCCN1CCN(c2nsc3ccccc23)CC1 [PEROSPIRONE] , no commentary.
0.87

###

# target-entity: 5-hydroxytryptamine receptor 2B (Homo sapiens); note: assay procedure not described here
# Sequence (P41595 whole entry): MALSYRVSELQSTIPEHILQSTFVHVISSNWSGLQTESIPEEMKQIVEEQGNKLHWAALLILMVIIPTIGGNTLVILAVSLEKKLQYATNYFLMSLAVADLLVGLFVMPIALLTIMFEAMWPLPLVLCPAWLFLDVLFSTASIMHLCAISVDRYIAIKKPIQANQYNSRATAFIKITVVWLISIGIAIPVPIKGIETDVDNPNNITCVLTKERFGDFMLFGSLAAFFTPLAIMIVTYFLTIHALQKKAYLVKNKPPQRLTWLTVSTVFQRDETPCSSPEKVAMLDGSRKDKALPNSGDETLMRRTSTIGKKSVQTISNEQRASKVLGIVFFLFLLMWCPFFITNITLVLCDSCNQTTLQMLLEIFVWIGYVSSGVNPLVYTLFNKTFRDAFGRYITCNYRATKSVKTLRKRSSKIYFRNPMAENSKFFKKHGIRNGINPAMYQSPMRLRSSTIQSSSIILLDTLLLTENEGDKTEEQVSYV
# Assay type: functional, cell-based
*1 amine or outer side, *2 acyl side, *3 side chain or, on linkers, in order; H or OH if unused. Where a SMILES comes first, the peptide text is derived from it. Bridges are numbered along the chain shown (N, C = ends). [ ]: non-standard residue; d: D form. The star is where a group is joined. hTyr(3S-OH,4S-OH,3'-OSO3H) = N[C@H](C(=O)O)[C@H](O)[C@@H](O)c1ccc(O)c(OS(=O)(=O)O)c1; Orn(4R-OH,5R-OH) = O=C([C@H](C[C@@H](O)[C@@H](O)N[*:3])N[*:1])[*:2]; Pro(3S-OH,4S-Me) = C[C@H]1CN[C@H](C(=O)O)[C@H]1O; X1 = CCCCCOc1ccc(-c2cc(-c3ccc(C(=O)*)cc3)no2)cc1; Gln(3R-OH) = NC(=O)C[C@@H](O)[C@H](N)C(=O)O; Hyp = O=C(O)[C@@H]1C[C@@H](O)CN1
As shown below, each of these compounds has a reported AC50 value.

Consider the following illustrative entries.
{"compound": "CCCCCCCCCCC[C@@H](C[C@@H]1OC(=O)[C@H]1CCCCCC)OC(=O)[C@H](CC(C)C)NC=O", "target-entity": "5-hydroxytryptamine receptor 2B (Homo sapiens)", "result": "> 30 µM"}
{"compound": "C=C1c2c(Cl)ccc(O)c2C(=O)C2=C(O)[C@]3(O)C(=O)C(C(N)=O)=C(O)[C@@H](N(C)C)[C@@H]3[C@@H](O)[C@H]12", "target-entity": "5-hydroxytryptamine receptor 2B (Homo sapiens)", "result": "> 30 µM"}
{"compound": "CCCCCOc1ccc(-c2cc(-c3ccc(C(=O)N[C@H]4C[C@@H](O)[C@@H](O)NC(=O)[C@@H]5[C@@H](O)[C@@H](C)CN5C(=O)[C@H]([C@H](O)CC(N)=O)NC(=O)[C@H]([C@H](O)[C@@H](O)c5ccc(O)c(OS(=O)(=O)O)c5)NC(=O)[C@@H]5C[C@@H](O)CN5C(=O)[C@H]([C@@H](C)O)NC4=O)cc3)no2)cc1 [MICAFUNGIN] (X1-[Orn(4R-OH,5R-OH)]T[Hyp][hTyr(3S-OH,4S-OH,3'-OSO3H)][Gln(3R-OH)][Pro(3S-OH,4S-Me)]; lactam 1-C)", "target-entity": "5-hydroxytryptamine receptor 2B (Homo sapiens)", "result": "> 30 µM"}
{"compound": "CCOC(=O)[C@H](CCc1ccccc1)N[C@H]1CS[C@H](c2cccs2)CN(CC(=O)O)C1=O", "target-entity": "5-hydroxytryptamine receptor 2B (Homo sapiens)", "result": "> 30 µM"}
{"compound": "C[C@]12CCC(=O)C=C1CC[C@@H]1[C@@H]2[C@@H](O)C[C@@]2(C)[C@H]1CC[C@]2(O)C(=O)COC(=O)CCC(=O)O [HYDROCORTISONE HEMISUCCINATE ANHYDROUS]", "target-entity": "5-hydroxytryptamine receptor 2B (Homo sapiens)", "result": "> 30 µM"}
{"compound": "C#C[C@]1(O)CC[C@H]2[C@@H]3CCC4=C(CCC(=O)C4)[C@H]3CC[C@@]21C", "target-entity": "5-hydroxytryptamine receptor 2B (Homo sapiens)", "result": "> 30 µM"}
{"compound": "C[C@H](N)C(=O)O", "target-entity": "5-hydroxytryptamine receptor 2B (Homo sapiens)", "result": "> 30 µM"}
{"compound": "CN(C)C(=O)Oc1cccc([N+](C)(C)C)c1", "target-entity": "5-hydroxytryptamine receptor 2B (Homo sapiens)", "result": "> 30 µM"}

Return value of AC50 for input O=C(Oc1ccccc1C(=O)O)c1ccccc1O [SALSALATE] , no commentary.
> 30 µM

Return value of AC50 for input Nc1nc(N)nc(Nc2ccc([As]3SCC(CO)S3)cc2)n1 (configuration not stated) , no commentary.
> 30 µM

Return value of AC50 for input CC(=O)O[C@H]1C[C@H](O[C@H]2[C@@H](O)C[C@H](O[C@H]3[C@@H](O)C[C@H](O[C@H]4CC[C@@]5(C)[C@H](CC[C@@H]6[C@@H]5C[C@@H](O)[C@]5(C)[C@@H](C7=CC(=O)OC7)CC[C@]65O)C4)O[C@@H]3C)O[C@@H]2C)O[C@H](C)[C@H]1O[C@@H]1O[C@H](CO)[C@@H](O)[C@H](O)[C@H]1O [LANATOSIDE C] , no commentary.
> 30 µM

Return value of AC50 for input CN(C)CCC(c1ccccc1)c1ccccn1 (configuration not stated) , no commentary.
> 30 µM

###

# target-entity: UniProtKB P18089
# Sequence (P18089 whole entry): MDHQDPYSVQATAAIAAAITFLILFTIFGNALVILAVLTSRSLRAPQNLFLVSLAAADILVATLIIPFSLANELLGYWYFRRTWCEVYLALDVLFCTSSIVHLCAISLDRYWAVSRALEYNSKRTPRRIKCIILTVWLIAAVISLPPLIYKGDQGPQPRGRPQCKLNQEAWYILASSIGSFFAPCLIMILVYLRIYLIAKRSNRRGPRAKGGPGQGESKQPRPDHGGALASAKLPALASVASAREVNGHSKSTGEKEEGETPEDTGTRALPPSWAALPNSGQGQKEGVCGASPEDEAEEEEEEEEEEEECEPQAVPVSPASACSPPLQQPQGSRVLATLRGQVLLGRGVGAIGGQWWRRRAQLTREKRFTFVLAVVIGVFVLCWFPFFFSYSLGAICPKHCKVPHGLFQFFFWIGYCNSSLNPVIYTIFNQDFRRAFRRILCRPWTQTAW
As shown below, each of these compounds has a reported AC50 value.

{"compound": "CC1(C)C(C=C(Cl)Cl)C1C(=O)OCc1cccc(Oc2ccccc2)c1 (stereo not given) [PERMETHRIN]", "AC50": "> 10 µM"}
{"compound": "Clc1ccc2c(c1)C(c1ccccc1)=NCc1nncn1-2 [ESTAZOLAM]", "AC50": "> 10 µM"}
{"compound": "CC(CCc1ccccc1)NC(C)C(O)c1ccc(O)cc1 (stereo not given) [NYLIDRIN]", "AC50": "0.73 µM"}
{"compound": "CCC(C)(Oc1ccc(C2(c3ccc(OC(C)(CC)C(=O)O)cc3)CCCCC2)cc1)C(=O)O (stereo not given) [CLINOFIBRATE]", "AC50": "> 30 µM"}
{"compound": "N=C(N)c1ccc2cc(OC(=O)c3ccc(N=C(N)N)cc3)ccc2c1 [NAFAMOSTAT]", "AC50": "12 µM"}
{"compound": "O=C1CN=C(c2ccccc2)c2cc(Cl)ccc2N1 [NORDAZEPAM]", "AC50": "> 10 µM"}

Please respond with reported AC50 (system UniProtKB P18089) for CCN(CC)C(=O)C1CN2CCc3cc(OC)c(OC)cc3C2CC1OC(C)=O (stereo not given) [BENZQUINAMIDE] .
1.03 µM

Please respond with reported AC50 (system UniProtKB P18089) for OCCN1CCN(CC/C=C2/c3ccccc3Sc3ccc(Cl)cc32)CC1 [ZUCLOPENTHIXOL] .
0.32 µM

Please respond with reported AC50 (system UniProtKB P18089) for CCCC(C)(COC(N)=O)COC(=O)NC(C)C (stereo not given) [CARISOPRODOL] .
> 10 µM

Please respond with reported AC50 (system UniProtKB P18089) for O=C1CN2Cc3c(ccc(Cl)c3Cl)N=C2N1 [ANAGRELIDE] .
> 10 µM

###

These records show AC50 for UniProt:P08908.
Sequence (P08908 whole entry): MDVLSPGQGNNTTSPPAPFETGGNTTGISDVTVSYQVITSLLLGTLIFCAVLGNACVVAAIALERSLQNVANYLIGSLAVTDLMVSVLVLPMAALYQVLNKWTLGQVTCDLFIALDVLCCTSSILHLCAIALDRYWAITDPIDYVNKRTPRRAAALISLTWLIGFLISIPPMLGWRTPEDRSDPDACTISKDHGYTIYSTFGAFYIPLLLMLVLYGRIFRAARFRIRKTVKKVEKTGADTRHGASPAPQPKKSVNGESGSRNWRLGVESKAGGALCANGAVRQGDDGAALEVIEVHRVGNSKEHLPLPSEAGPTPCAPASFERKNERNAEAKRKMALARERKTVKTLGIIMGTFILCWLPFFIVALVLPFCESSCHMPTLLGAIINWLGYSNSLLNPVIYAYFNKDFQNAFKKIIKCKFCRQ

Consider the following illustrative entries.
{"compound": "CC1(C)S[C@@H]2[C@H](NC(=O)[C@H](NC(=O)N3CCN(S(C)(=O)=O)C3=O)c3ccccc3)C(=O)N2[C@H]1C(=O)O", "AC50": "> 30 µM"}
{"compound": "O=C(Nc1nc(-c2cc(Cl)cs2)c(N2CCN(C3CCCCC3)CC2)s1)c1cnc(N2CCC(C(=O)O)CC2)c(Cl)c1", "AC50": "> 30 µM"}
{"compound": "c1ccc2[nH]c(-c3cscn3)nc2c1", "AC50": "> 30 µM"}
{"compound": "CCC(=O)O[C@@H]1CC(=O)O[C@H](C)C/C=C/C=C/[C@H](OC(C)=O)[C@H](C)C[C@H](CC=O)[C@H](O[C@@H]2O[C@H](C)[C@@H](O[C@H]3C[C@@](C)(OC(C)=O)[C@@H](OC(=O)CC)[C@H](C)O3)[C@H](N(C)C)[C@H]2O)[C@H]1OC", "AC50": "> 30 µM"}
{"compound": "C[C@]1(COc2ccc(N3CCC(Oc4ccc(OC(F)(F)F)cc4)CC3)cc2)Cn2cc([N+](=O)[O-])nc2O1", "AC50": "> 30 µM"}

API: the following record is the query input.
Return value of AC50 for input C[C@@H](O)[C@H]1C(=O)N2C(C(=O)[O-])=C(SC3Cn4cnc[n+]4C3)[C@H](C)[C@H]12 (stereo partly drawn) , no commentary.
> 30 µM
